# Tested on: HCC-2998 colon
# experiment_notes: NCI tumour cell line growth inhibition, 48 h
measure_name: TGI (µM)
Value expressed in µM; do not type the unit.

Hello, I am looking for reported TGI with HCC-2998 colon for Cc1ccc(C)n1-c1ccccc1C1C=CN(C(=O)OC(C)(C)C)C=C1 . Could you help?
34

Hello, I am looking for reported TGI with HCC-2998 colon for O=C(c1ccccc1)[C@@H]1C[C@H](Sc2ccccc2)c2cc(Cl)ccc2N1 . Could you help?
51.8

Hello, I am looking for reported TGI with HCC-2998 colon for O=C(c1ccccc1)C(Br)C(Br)c1cccc([N+](=O)[O-])c1 (stereo not drawn) . Could you help?
2.95

Hello, I am looking for reported TGI with HCC-2998 colon for Cc1sc2nc(-c3ccc([N+](=O)[O-])cc3)c(/C=N/N=C(N)N)n2c1C . Could you help?
0.693

Hello, I am looking for reported TGI with HCC-2998 colon for CN(C)CCNC(=O)c1cccc2[nH]c(-c3cccnc3)nc12 . Could you help?
43.4

Hello, I am looking for reported TGI with HCC-2998 colon for COc1ccc(NC(=O)COCCOCCNC[C@@H]2C(=O)O[C@H]3[C@H]2CC/C(COC(=O)OC/C2=C/CC[C@@]4(C)O[C@H]4[C@H]4OC(=O)[C@@H](CN(C)C)[C@@H]4CC2)=C\CC[C@@]2(C)O[C@@H]32)c(O)c1C(N)=O . Could you help?
19.1

Hello, I am looking for reported TGI with HCC-2998 colon for CCCCCCCCCCCCOC1C(C(COC2OC(C3COC(C)(C)O3)C3OC(C)(C)OC23)NC(=O)NS(=O)(=O)c2ccccc2)OC2OC(C)(C)OC21 (stereo not drawn) . Could you help?
12.8

Hello, I am looking for reported TGI with HCC-2998 colon for Nc1ccc(CCSSCCc2ccc(N)cc2)cc1 . Could you help?
34.4

Hello, I am looking for reported TGI with HCC-2998 colon for Oc1[nH]c2c(Br)cccc2c1C1=Nc2ccccc2/C1=N/OCCN1CCCC1 . Could you help?
6.18

====

# System: SNB-75 CNS
# experiment_notes: NCI tumour cell line growth inhibition, 48 h; in the data active means GI50 below about 0.43 µM; inactive means the rest
Could you please pick one outcome from this set? T = active, F = inactive

Per the assay record, what outcome was assigned to Cc1cc(=O)[nH]c2cc3c(c4c(n3Cc3ccc(Cl)cc3Cl)CC(C)(C)CC4=O)c(O)c12 ?
F

Per the assay record, what outcome was assigned to CC1(C)OC(CP(c2ccccc2)c2ccccc2)C(CP(c2ccccc2)c2ccccc2)O1 (stereo not given) ?
F

Per the assay record, what outcome was assigned to N#CC1=C(N)Oc2c(sc3c(Br)cccc23)C1c1ccc(Br)cc1 (stereo not given) ?
T

Per the assay record, what outcome was assigned to CC(=O)c1cccc(Nc2nc3ccc(Cl)cc3c3[nH]c4ccccc4c23)c1 ?
F

Per the assay record, what outcome was assigned to O=C(Nc1ccc2[nH]c(=S)sc2c1)Nc1ccccc1F ?
F

====

Provide the recorded TGI for the entries that follow.
# System: OVCAR-8 ovarian
# experiment_notes: NCI tumour cell line growth inhibition, 48 h

I'd like to know its TGI. The molecule in question is CN(N)/N=N/c1nc[nH]c1[N+](=O)[O-]
> 100 µM

I'd like to know its TGI. The molecule in question is NC1CC(Cl)c2c(Cl)sc(Cl)c21 (stereo unspecified)
> 100 µM

I'd like to know its TGI. The molecule in question is Nc1[nH]c(=S)c2c(N)n[nH]c2c1C(=O)Nc1ccccc1
> 100 µM

I'd like to know its TGI. The molecule in question is COc1ccc(C(=O)/C=C/c2ccc3c(c2)OCO3)c(OCc2ccccc2)c1
> 100 µM

I'd like to know its TGI. The molecule in question is Oc1cc(-c2ccc(Cl)cc2)cn2c1nc1ccccc12
> 100 µM

I'd like to know its TGI. The molecule in question is CN(C)CCNC(=O)c1cccc2[nH]c(-c3cccnc3)nc12
44.1 µM

I'd like to know its TGI. The molecule in question is CC(=O)c1cccc(Nc2nc3ccc(Cl)cc3c3[nH]c4ccccc4c23)c1
32.7 µM

I'd like to know its TGI. The molecule in question is N#Cc1ccc(C(=O)/C=C/c2ccc(O)c(O)c2)cc1
> 54.8 µM

I'd like to know its TGI. The molecule in question is Fc1ccccc1C1SCc2nc3ccccc3n21 (stereo unspecified)
> 100 µM

I'd like to know its TGI. The molecule in question is CC(C)(C)OC(=O)N1CCC2(C)CC(=O)CC=C12 (stereo unspecified)
> 100 µM

I'd like to know its TGI. The molecule in question is COc1ccc(-n2cc(-c3cc(OC)c(OC)c(OC)c3)nc2SCc2ccccc2)cc1OC
> 100 µM

====

# Tested on: MCF7 breast
# experiment_notes: NCI tumour cell line growth inhibition, 48 h
measure_name: GI50

I'd like to know its GI50. The compound in question is COC(=O)CCC1CCC(c2cc(F)ccc2F)(S(=O)(=O)c2ccc(Cl)cc2)CC1 (centres undefined)
70.2 µM

I'd like to know its GI50. The compound in question is COC(=O)C1=C(C(=O)OC)SC(=C(Cl)C(=S)Nc2ccccc2O)S1
8.57 µM

I'd like to know its GI50. The compound in question is C=C(C)[C@@H]1CC[C@]2(C)[C@H](CC=C3[C@@H]4[C@@H](C)[C@H](C)CC[C@]4(C(N)=O)CC[C@]32C)[C@@]1(C)CCC#N
3.59 µM

I'd like to know its GI50. The compound in question is NC1=C(c2nc(-c3ccccc3)cs2)C(c2ccc(Br)cc2)c2c(c3ccccc3oc2=O)O1 (centres undefined)
> 150 µg/mL

====

# Test system: KM20L2 colon
# experiment_notes: NCI tumour cell line growth inhibition, 48 h
measure_name: TGI

I'd like to know its TGI. The compound in question is COC(=O)NC12CC3CC(CC(F)(C3)C1)C2
> 100 µM

I'd like to know its TGI. The compound in question is O=C1CCCC(=O)N1CCc1c[nH]c2ccccc12
> 100 µM

I'd like to know its TGI. The compound in question is CN1CC[C@]2(C)c3cc(O)ccc3CC3CCCC1C32C (stereo partly specified)
> 100 µM

I'd like to know its TGI. The compound in question is CC(C)C(Sc1nc(-c2ccccc2)c(-c2ccccc2)[nH]1)C(=O)NN (stereo unspecified)
> 100 µM

I'd like to know its TGI. The compound in question is COc1ccc2c(c1)Oc1cc(O)ccc1[C@@H]2c1ccccc1C(=O)NC(C)c1ccccc1 (stereo partly specified)
31.4 µM

I'd like to know its TGI. The compound in question is C=C1C(=O)OC2C=C(CCC(C)=O)C(C)C(OC(C)=O)CC12 (stereo unspecified)
16.4 µM

I'd like to know its TGI. The compound in question is COc1ccc(S(=O)(=O)N/N=C/c2cc(I)cc([N+](=O)[O-])c2O)cc1OC
> 100 µM

I'd like to know its TGI. The compound in question is O=c1nc(NC(c2ccccc2)(c2ccccc2)c2ccccc2)ccn1CCNCCn1ccc(NC(c2ccccc2)(c2ccccc2)c2ccccc2)nc1=O
30.1 µM

I'd like to know its TGI. The compound in question is COC(=O)NN=C1C(C)(C)C(=O)C1(C)C
> 100 µM

I'd like to know its TGI. The compound in question is C[N+]1(C)C/C(=C\c2ccccc2)C(=O)/C(=C/c2ccccc2)C1
> 100 µM

I'd like to know its TGI. The compound in question is NC(CCC(=O)NC(CSC(=O)N(O)c1ccccc1)C(=O)NCC(=O)O)C(=O)O (stereo unspecified)
> 1000 µM

I'd like to know its TGI. The compound in question is Cc1cc(NS(=O)(=O)c2ccc(NC(=O)c3ccc(Cl)c4c(Nc5ccc(S(=O)(=O)N=C(N)N)cc5)c5ccccc5nc34)cc2)no1
> 100 µM

I'd like to know its TGI. The compound in question is COc1cc2c(cc1OC)[C@H]1C(COC(=O)c3ccccc3)CSC(=Nc3ccccc3)N1CC2 (stereo partly specified)
> 100 µM

I'd like to know its TGI. The compound in question is C/C=C1/CCC2c3[nH]c4ccccc4c3CCN2C1 (stereo unspecified)
> 100 µM

I'd like to know its TGI. The compound in question is N#CCCN(c1ccc(C=Nc2ccccc2Cl)cc1)S(=O)(=O)c1ccccc1
> 100 µM

I'd like to know its TGI. The compound in question is C[n+]1c2ccccc2c(NC(CS)C(=O)O)c2ccccc21 (stereo unspecified)
> 100 µM

====

# Tested on: M14 melanoma
# experiment_notes: NCI tumour cell line growth inhibition, 48 h
measure_name: GI50

I'd like to know its GI50. The compound in question is Nc1nc(N)c2c(n1)NC(c1ccc(F)cc1)C1CCc3ccccc3C1=N2 (stereo not given)
5.51 µM

I'd like to know its GI50. The compound in question is Oc1ccccc1C=Nc1nc(SCc2ccccc2)nc2[nH]ncc12
38.4 µM

I'd like to know its GI50. The compound in question is O=S(=O)(c1cccc2c(Cl)cccc12)N1CCCNCC1
12.4 µM

I'd like to know its GI50. The compound in question is O=C(c1ccccc1)C(Br)C(Br)c1cccc([N+](=O)[O-])c1 (stereo not given)
1.78 µM

I'd like to know its GI50. The compound in question is COc1ccccc1N1CCN(CCc2c[nH]c3cc4c(cc23)OCO4)CC1
11.3 µM
